biological target: human Nav1.1 (Homo sapiens, UniProt P35498); construct: host or cells: HEK293; experiment: Amplification of Nav1.1-derived voltage-gated sodium current (Nav1.1 current), automated patch clamp (Test 1); type: cell-based; settings: concentration for evaluation 1 μM; HEK293 stably expressing human Nav1.1
Assignment: determine reported Nav1.1 current amplification rate (%) for the given compounds.
Numbers only, in %.

compound	Nav1.1 current amplification rate (%)
O=C(Cn1ncc2cnc(C3=CCC(F)(F)CC3)nc21)Nc1ccc2ncnn2c1 [Example 812]	13
O=C(Cn1ncc2cnc(N3CCC4(CC4)C(F)(F)C3)nc21)Nc1cccnc1 [Example 826]	31
COc1ccc(NC(=O)Cn2ncc3cnc(N4CCC5(CC5)C(F)(F)C4)nc32)cn1 [Example 825]	30

Consider now this further compound.
Supply measured Nav1.1 current amplification rate (%) of O=C(Cn1ncc2ccc(C3=CCC(F)(F)CC3)nc21)Nc1ccn2ncnc2c1 [Example 860] in your reply.
50
